assayed_system: human ROR1 expressed on cells (MDA-MB-231, Jeko-1, PA-1, HCC1187) (human, UniProt Q01973 30-937)
Sequence (Q01973 30-937 limits assumed): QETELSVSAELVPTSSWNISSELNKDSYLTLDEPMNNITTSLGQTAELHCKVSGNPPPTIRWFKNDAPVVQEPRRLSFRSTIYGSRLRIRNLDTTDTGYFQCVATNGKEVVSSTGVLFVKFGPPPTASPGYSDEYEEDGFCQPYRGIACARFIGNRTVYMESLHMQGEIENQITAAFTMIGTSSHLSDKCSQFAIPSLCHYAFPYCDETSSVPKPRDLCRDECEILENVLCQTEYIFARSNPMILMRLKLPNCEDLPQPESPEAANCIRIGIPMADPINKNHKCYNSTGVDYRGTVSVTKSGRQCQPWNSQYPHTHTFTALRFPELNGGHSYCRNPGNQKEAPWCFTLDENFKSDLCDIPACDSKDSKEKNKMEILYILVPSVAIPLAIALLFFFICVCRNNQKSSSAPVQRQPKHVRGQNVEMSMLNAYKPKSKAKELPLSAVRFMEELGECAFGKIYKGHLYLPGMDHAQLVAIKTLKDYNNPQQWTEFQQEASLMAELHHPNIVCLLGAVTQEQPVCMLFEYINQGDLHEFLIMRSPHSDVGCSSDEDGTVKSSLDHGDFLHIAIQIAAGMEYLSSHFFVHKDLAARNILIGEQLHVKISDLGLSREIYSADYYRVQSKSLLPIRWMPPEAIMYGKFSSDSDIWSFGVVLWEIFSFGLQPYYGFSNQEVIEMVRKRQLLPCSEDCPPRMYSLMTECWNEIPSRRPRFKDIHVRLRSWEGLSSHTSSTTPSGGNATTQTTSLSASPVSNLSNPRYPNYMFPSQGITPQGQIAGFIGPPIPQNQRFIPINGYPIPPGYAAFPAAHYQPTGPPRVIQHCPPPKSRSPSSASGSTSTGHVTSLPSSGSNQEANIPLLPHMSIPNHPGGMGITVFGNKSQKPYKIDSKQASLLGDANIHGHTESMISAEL
experiment: cell-based or functional assay
recorded_endpoint: inhibitory IC50 against the proliferation of Jeko1 cells (CellTiterGlo2) (nM)
Your answer should be a plain number; it is taken to be in nM.

ADC-7 (UC961 conjugated to LD-1) (antibody, human IgG1, kappa, V domains shown, linker-drug LD-1 (MMAE) on cysteine sulfhydryls of reduced disulfides; drug loading 3.7-4.3 per antibody) VH: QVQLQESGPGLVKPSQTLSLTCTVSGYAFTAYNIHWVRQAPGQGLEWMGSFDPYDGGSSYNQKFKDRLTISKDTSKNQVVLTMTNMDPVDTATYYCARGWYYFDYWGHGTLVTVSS VL: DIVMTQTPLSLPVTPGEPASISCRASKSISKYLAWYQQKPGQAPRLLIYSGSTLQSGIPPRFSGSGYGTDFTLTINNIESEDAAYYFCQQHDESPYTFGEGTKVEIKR ... 76.3
ADC-6 (UC961 conjugated to LD-14) (antibody, human IgG1, kappa, V domains shown, linker-drug LD-14 (eribulin) on cysteine sulfhydryls of reduced disulfides; drug loading 3.7-4.3 per antibody) VH: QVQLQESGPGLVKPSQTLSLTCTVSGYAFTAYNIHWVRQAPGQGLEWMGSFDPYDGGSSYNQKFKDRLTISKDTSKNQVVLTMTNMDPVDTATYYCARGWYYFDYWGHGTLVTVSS VL: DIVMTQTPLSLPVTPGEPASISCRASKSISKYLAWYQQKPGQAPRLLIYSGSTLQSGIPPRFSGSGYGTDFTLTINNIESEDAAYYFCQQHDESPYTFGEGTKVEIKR ... 2.08
ADC-5 (AM3-ZH3 conjugated to LD-1) (antibody, human IgG1, kappa, V domains shown, linker-drug LD-1 (MMAE) on cysteine sulfhydryls of reduced disulfides; average DAR between 3.7 and 4.3) VH: EVQLVESGGGLVQPGGSLRLSCAASGFTFSSYPMSWVRQAPGKGLEWVSSISTGASAYFPDSVKGRFTISRDNAKNSLYLQMNSLRAEDTAVYYCARITTSTWYMDVWGQGTTVTVSS VL: DIQMTQSPSAMSASVGDRVTITCKASQDIYSYLSWFQQKPGKVPKTLIYRANRLVRGVPSRFSGSGSGQEYTLTISSLQPEDMATYYCLQYDEFPYTFGQGTKLEIKR ... 65.1

// query inhibitory IC50 against the proliferation of Jeko1 cells (CellTiterGlo2) for ADC-2 (AM3-ZH3 conjugated to LD-14) (antibody, human IgG1, kappa, V domains shown, linker-drug LD-14 (eribulin) on cysteine sulfhydryls of reduced disulfides; average DAR between 3.7 and 4.3) VH: EVQLVESGGGLVQPGGSLRLSCAASGFTFSSYPMSWVRQAPGKGLEWVSSISTGASAYFPDSVKGRFTISRDNAKNSLYLQMNSLRAEDTAVYYCARITTSTWYMDVWGQGTTVTVSS VL: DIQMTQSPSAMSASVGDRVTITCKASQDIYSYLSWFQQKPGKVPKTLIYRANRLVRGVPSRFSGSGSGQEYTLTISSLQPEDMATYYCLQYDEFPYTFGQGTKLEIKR ?
// result 0.285

// data source = patent EP4696329A1
